- System under test: Tyrosine-protein kinase ITK/TSK (Homo sapiens)
- Sequence (Q08881 whole entry): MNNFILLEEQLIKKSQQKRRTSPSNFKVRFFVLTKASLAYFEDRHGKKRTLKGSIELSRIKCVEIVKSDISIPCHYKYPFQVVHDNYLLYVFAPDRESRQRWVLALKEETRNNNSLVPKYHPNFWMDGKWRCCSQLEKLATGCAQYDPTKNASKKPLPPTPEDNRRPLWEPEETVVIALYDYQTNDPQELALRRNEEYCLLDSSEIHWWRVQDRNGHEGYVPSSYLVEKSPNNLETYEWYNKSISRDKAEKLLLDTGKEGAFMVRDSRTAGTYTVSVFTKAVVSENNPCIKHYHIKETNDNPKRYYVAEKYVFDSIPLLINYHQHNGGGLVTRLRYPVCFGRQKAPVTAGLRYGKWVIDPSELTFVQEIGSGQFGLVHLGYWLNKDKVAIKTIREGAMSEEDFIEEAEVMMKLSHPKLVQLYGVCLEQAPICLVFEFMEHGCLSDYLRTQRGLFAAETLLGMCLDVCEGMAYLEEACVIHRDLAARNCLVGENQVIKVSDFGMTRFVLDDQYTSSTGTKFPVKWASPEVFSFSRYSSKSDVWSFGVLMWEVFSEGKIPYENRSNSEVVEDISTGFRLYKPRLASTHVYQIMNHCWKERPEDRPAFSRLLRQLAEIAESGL
- Test description: ITK Target Modulation PLC-gamma Assay: Compounds were serially diluted into DMSO, and then into media to concentrations 10× that of the final assay concentration. Compounds were then added to the cells with the final assay DMSO concentration being 0.1%. Cells were incubated for 1 hour at 37° C. Following compound incubation, αCD3 Dynabeads were added at 1 bead/cell to each assay well and incubated at 37° C. for 7 minutes. Unstimulated control wells received media only. The plate was then placed on a 96-well magnetic plate for an additional 60 seconds (total assay stimulation time equals 8 minutes). The plate was then dumped and gently patted dry on a paper towel. 50 ul of complete Meso Scale Discovery (MSD) Lysis buffer was then added to each well. Samples were assayed for phospho-PLCγ1 using Meso Scale Discovery technology.
pIC50: −log10 of the molar value.
Reported pIC50 values for the following compounds.

Observe how each entry below is paired with its result.
[
  {
    "Line notation": "C=CC(=O)Nc1cccc(-c2cnc3[nH]cc(-c4cccc(C#N)c4)c3c2)c1",
    "System under test": "Tyrosine-protein kinase ITK/TSK (Homo sapiens)",
    "pIC50": "5.30 to 6.00"
  },
  {
    "Line notation": "C=CC(=O)Nc1cccc(-c2cnc3[nH]cc(-c4cccc5occc45)c3c2)c1",
    "System under test": "Tyrosine-protein kinase ITK/TSK (Homo sapiens)",
    "pIC50": "< 5.30"
  },
  {
    "Line notation": "C=CC(=O)Nc1cccc(-c2cnc3[nH]cc(-c4cc(C)nc(OC)c4)c3c2)c1",
    "System under test": "Tyrosine-protein kinase ITK/TSK (Homo sapiens)",
    "pIC50": "5.30 to 6.00"
  },
  {
    "Line notation": "C=CC(=O)Nc1cc(-c2cnc3[nH]cc(-c4ccnc(OC)c4)c3c2)cc(-c2cnn(C)c2)c1",
    "System under test": "Tyrosine-protein kinase ITK/TSK (Homo sapiens)",
    "pIC50": "> 6.00"
  },
  {
    "Line notation": "C=CC(=O)Nc1cccc(-c2cnc3[nH]cc(-c4ccccc4C)c3c2)c1",
    "System under test": "Tyrosine-protein kinase ITK/TSK (Homo sapiens)",
    "pIC50": "5.30 to 6.00"
  },
  {
    "Line notation": "C=CC(=O)Nc1cccc(-c2cnc3[nH]cc(-c4ccnc(F)c4)c3c2)c1",
    "System under test": "Tyrosine-protein kinase ITK/TSK (Homo sapiens)",
    "pIC50": "> 6.00"
  },
  {
    "Line notation": "C=CC(=O)Nc1cccc(-c2cnc3[nH]cc(-c4cccc5ncccc45)c3c2)c1",
    "System under test": "Tyrosine-protein kinase ITK/TSK (Homo sapiens)",
    "pIC50": "5.30 to 6.00"
  },
  {
    "Line notation": "C=CC(=O)Nc1cccc(-c2cnc3[nH]cc(-c4cn(CC5CC5)c(=O)c5[nH]ccc45)c3c2)c1",
    "System under test": "Tyrosine-protein kinase ITK/TSK (Homo sapiens)",
    "pIC50": "5.30 to 6.00"
  }
]

Requested read-out pIC50, target or system Tyrosine-protein kinase ITK/TSK (Homo sapiens), entry C=CC(=O)Nc1cccc(-c2cnc3[nH]cc(-c4ccnc5ccccc45)c3c2)c1
5.30 to 6.00

Requested read-out pIC50, target or system Tyrosine-protein kinase ITK/TSK (Homo sapiens), entry C=CC(=O)Nc1cccc(-c2cnc3[nH]cc(-c4cccc(OC)c4)c3c2)c1
5.30 to 6.00

Requested read-out pIC50, target or system Tyrosine-protein kinase ITK/TSK (Homo sapiens), entry C=CC(=O)Nc1cc(-c2cnc3[nH]cc(-c4ccc(OC)nc4)c3c2)cc(C(F)(F)F)c1
5.30 to 6.00

Where do these numbers come from? They come from ChEMBL document CHEMBL5725323.
